- measuredOn: T1, mPD-1.His (mouse, UniProt Q02242 25-167, limits assumed)
- T1 construct: Soluble analyte, probably the extracellular domain; also called mouse PD-1 (SPR analyte)
- T1 sequence (looked up): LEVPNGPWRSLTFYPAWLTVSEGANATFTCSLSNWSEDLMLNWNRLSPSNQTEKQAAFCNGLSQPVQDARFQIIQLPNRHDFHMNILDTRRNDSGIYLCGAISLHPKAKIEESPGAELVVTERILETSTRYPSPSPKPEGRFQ
- measurementProtocol: SPR (ProteOn XPR36), antibody captured on Protein A, PD-1.His as analyte, 1:1 fit
- Description: Antibodies were characterized for affinity and binding kinetics to PD-1 by SPR assay using ProteOn XPR36 (Bio-Rad). Protein A protein (Sigma) was immobilized to a GLM sensor chip (Bio-Rad) through amine coupling. Purified antibodies were flowed over the sensor chip and captured by the Protein A. The chip was rotated […] and washed with running buffer (1×PBS/0.01% Tween20, Bio-Rad) until the baseline was stable. […]
Overview of reported pKd across a group of binders:
Note on units: pKd is unitless, being -log10 of a concentration expressed in mol/L.

Known pKd results, listed for orientation:
2C2 (antibody, human IgG4, V domains shown) VH: QVQLVQSGAEVKKPGSSVKVSCKASGFTFTTYYISWVRQAPGQGLEYLGYINMGSGGTNYNEKFKGRVTITADKSTSTAYMELSSLRSEDTAVYYCAIIGYFDYWGQGTMVTVSS VL: DVVMTQSPLSLPVTLGQPASISCRSSQSLLDSDGATYLYWFQQRPGQSPRRLIYLVSTLGSGVPDRFSGSGSGTDFTLKISRVEAEDVGVYYCMQLTHWPYTFGQGTKLEIK    8.16
1H6 (antibody, human IgG4, V domains shown) VH: QVQLVQSGAEVKKPGSSVKVSCKASGFTFTTYYISWVRQAPGQGLEYLGYINMGSGGTNYNEKFKGRVTITADKSTSTAYMELSSLRSEDTAVYYCAILGYFDYWGQGTMVTVSS VL: DVVMTQSPLSLPVTLGQPASISCRSSQSLLDSDGGTYLYWFQQRPGQSPRRLIYLVSTLGSGVPDRFSGSGSGTDFTLKISRVEAEDVGVYYCMQLTHWPYTFGQGTKLEIK    8.03

Quick note, pKd for 2E5 (antibody, human IgG4, V domains shown) VH: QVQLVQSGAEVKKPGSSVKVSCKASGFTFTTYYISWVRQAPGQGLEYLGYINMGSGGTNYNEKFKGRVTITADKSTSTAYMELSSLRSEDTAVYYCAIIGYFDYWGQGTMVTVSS VL: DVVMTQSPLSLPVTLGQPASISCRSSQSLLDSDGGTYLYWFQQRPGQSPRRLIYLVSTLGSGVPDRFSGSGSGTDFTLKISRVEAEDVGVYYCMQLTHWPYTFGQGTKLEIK landed at 8.40
